Target: NR1/NR2A (Rattus norvegicus, UniProt P35439+Q00959)
Sequence (Q00959 23-1464, other chains not shown): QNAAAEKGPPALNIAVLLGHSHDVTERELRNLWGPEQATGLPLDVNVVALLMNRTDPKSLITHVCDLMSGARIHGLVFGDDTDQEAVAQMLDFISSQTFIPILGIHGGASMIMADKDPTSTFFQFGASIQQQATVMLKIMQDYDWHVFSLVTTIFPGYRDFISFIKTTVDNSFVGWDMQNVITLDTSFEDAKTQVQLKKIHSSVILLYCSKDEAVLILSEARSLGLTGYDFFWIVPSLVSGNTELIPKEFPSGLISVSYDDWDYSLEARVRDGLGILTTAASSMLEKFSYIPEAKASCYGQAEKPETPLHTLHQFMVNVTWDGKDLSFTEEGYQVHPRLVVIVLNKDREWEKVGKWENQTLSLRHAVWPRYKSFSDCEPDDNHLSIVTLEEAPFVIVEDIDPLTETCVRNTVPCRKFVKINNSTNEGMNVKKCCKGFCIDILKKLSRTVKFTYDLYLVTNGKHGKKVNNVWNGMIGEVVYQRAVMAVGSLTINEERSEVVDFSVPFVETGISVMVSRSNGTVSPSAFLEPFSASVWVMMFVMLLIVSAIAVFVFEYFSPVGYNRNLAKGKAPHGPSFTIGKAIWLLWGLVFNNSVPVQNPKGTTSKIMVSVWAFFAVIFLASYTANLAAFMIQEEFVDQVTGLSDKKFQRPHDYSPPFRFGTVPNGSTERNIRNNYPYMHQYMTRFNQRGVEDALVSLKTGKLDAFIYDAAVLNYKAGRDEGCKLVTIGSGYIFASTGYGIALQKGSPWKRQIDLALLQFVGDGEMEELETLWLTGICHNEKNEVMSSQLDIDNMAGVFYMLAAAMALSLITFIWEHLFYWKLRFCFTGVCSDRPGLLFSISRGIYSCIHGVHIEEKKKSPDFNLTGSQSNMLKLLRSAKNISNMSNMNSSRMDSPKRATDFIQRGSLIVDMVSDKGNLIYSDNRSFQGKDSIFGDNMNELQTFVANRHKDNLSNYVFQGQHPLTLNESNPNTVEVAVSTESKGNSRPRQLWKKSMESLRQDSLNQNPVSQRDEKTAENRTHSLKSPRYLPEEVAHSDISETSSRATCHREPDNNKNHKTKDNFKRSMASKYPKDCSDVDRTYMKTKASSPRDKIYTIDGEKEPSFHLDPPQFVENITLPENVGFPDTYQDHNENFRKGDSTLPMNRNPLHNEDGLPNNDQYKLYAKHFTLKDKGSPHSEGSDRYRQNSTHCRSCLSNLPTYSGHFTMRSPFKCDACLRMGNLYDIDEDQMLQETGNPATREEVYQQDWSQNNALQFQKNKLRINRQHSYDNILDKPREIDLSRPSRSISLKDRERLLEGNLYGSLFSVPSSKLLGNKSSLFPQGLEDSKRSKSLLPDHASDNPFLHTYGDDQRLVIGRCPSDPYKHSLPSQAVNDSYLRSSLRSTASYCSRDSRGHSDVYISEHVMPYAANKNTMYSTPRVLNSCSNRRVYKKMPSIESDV
Assay: Two electrode voltage clamp, Xenopus oocytes expressing recombinant NR1/NR2A
Format: cell-based
Settings: read-out: 2A percent effect at the maximum tested concentration
Recorded measurements of remaining activity at 100 µM, one per entry
Quick reminder: number only, in %, skip the unit.

Report remaining activity at 100 µM, nothing else, for this molecule: CCN(CC)C(=O)Oc1ccc(C(=O)Nc2ccc3c(c2)CCCC3)cc1 [1063-19]
89

Give the value of remaining activity at 100 µM reported for the following: C=CCN(CC=C)C(=O)Oc1ccc(C(=O)Nc2cccc3ccccc23)cc1 [1063-5]
104

Tell me measured remaining activity at 100 µM for CC(C)N(C(=O)Oc1ccc(C(=O)Nc2ccc3[nH]ccc3c2)cc1)C(C)C [1063-16] please.
100

The measurements presented in this section are drawn from patent US20110319416A1.
